# target-under-test: T1, human TIGIT protein (human, UniProt Q495A1 22-141, limits assumed)
# T1 construct: Recombinant protein (Genentech) used in ELISA screening and as SPR analyte; also called TIGIT antigen
# T1 sequence: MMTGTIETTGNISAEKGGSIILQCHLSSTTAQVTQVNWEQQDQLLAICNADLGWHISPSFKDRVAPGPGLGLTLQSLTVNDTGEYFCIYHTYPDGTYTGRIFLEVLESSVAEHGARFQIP
# protocol-description: SPR, captured mAb
quantity-kind: kon (M⁻¹ s⁻¹)
Write the value in M⁻¹ s⁻¹ as a bare number.

Data point: h7E7.L2H1 (antibody, V domains shown, VL: I58V against h7E7.L1H1; FR/HVR pieces) VH: EVQLVQSGAEVKKPGASVKVSCKASGYTFTEYSIYWVRQAPGQRLEIIGRIDPKNGRTYYVDKFKNRATLTADTSASTAYMELSSLRSEDTAVYFCTRIYGFYFDFWGQGTLVTVSS VL: DIQLTQSPSFLSASVGDRVTITCKGSQNVNKYLVWYQQKPGKAPKLLIYNTDNLQSGVPSRFSGSGSGTEYTLTISSLQPEDFATYFCYQYNNGFTFGQGTKVEIK ; kon = 2.06e+06

h15C8.L1H2 (antibody, V domains shown, VH: L37V against h15C8.L1H1; FR/HVR pieces) VH: EVQLVQSGAEVKKPGASVKVSCKASGYTFTEHSIYWVRQAPGQRLEIIGRIDPKNGRTYFVDKFKNRATLTTDTSASTAYMELSSLRSEDTAVYFCARIDGFYFDFWGQGTLVTVSS VL: DIQLTQSPSFLSASVGDRVTITCKGSQNVNKYLVWYQQKPGKAPKLLIYSTDNLQSGIPSRFSGSGSGTEYTLTISSLQPEDFATYFCYQYNNGFTFGQGTKVEIK yielded kon of 1.04e+06

Sample h7E7.L5H1 (antibody, V domains shown, VL: I58V, Y71F, F87Y against h7E7.L1H1; FR/HVR pieces) VH: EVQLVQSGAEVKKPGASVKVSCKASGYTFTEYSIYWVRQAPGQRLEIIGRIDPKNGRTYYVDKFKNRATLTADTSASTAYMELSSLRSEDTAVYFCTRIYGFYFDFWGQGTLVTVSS VL: DIQLTQSPSFLSASVGDRVTITCKGSQNVNKYLVWYQQKPGKAPKLLIYNTDNLQSGVPSRFSGSGSGTEFTLTISSLQPEDFATYYCYQYNNGFTFGQGTKVEIK ; kon observed: 3.21e+06

Item: h6B2.L2H5 (antibody, V domains shown, Fully humanized version; FR/HVR pieces in order) VH: EVTLKESGPALVKPTQTLTLTCTFSGFSLSTYGMGVSWIRQPPGKALEWLASIWWNGNTYYNPSLKSRLTITKDTSKNQVVLTMTNMDPVDTATYYCAHTGGAVITWFAYWGQGTLVTVSS VL: DIQMTQSPSSLSASVGDRVTITCKASQSVGKNIAWYQQKPGKAPKLLIYYASNRYTGVPSRFSGSGSGTDFTFTISSLQPEDIATYYCQHIYNSPYPFGQGTKVEIK | kon: 4.65e+06

kon recorded for this binder, h15C8.L1H6 (antibody, V domains shown, VH: L69I (printed L691) against h15C8.L1H1; FR/HVR pieces) VH: EVQLVQSGAEVKKPGASVKVSCKASGYTFTEHSIYWLRQAPGQRLEIIGRIDPKNGRTYFVDKFKNRATITTDTSASTAYMELSSLRSEDTAVYFCARIDGFYFDFWGQGTLVTVSS VL: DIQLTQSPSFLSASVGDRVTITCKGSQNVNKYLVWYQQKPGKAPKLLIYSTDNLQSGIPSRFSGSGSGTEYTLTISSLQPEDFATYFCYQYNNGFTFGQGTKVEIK , is 1.38e+06

// kon lookup, binder = h7E7.L1H4 (antibody, V domains shown, VH: A67V against h7E7.L1H1; FR/HVR pieces) VH: EVQLVQSGAEVKKPGASVKVSCKASGYTFTEYSIYWVRQAPGQRLEIIGRIDPKNGRTYYVDKFKNRVTLTADTSASTAYMELSSLRSEDTAVYFCTRIYGFYFDFWGQGTLVTVSS VL: DIQLTQSPSFLSASVGDRVTITCKGSQNVNKYLVWYQQKPGKAPKLLIYNTDNLQSGIPSRFSGSGSGTEYTLTISSLQPEDFATYFCYQYNNGFTFGQGTKVEIK , result: 2.79e+06

Measured kon of h15C8.L2H1 (antibody, V domains shown, VL: I58V against h15C8.L1H1; FR/HVR pieces) VH: EVQLVQSGAEVKKPGASVKVSCKASGYTFTEHSIYWLRQAPGQRLEIIGRIDPKNGRTYFVDKFKNRATLTTDTSASTAYMELSSLRSEDTAVYFCARIDGFYFDFWGQGTLVTVSS VL: DIQLTQSPSFLSASVGDRVTITCKGSQNVNKYLVWYQQKPGKAPKLLIYSTDNLQSGVPSRFSGSGSGTEYTLTISSLQPEDFATYFCYQYNNGFTFGQGTKVEIK : 771000

get_value(item= h7E7.L1H6 (antibody, V domains shown, VH: A71R against h7E7.L1H1; FR/HVR pieces) VH: EVQLVQSGAEVKKPGASVKVSCKASGYTFTEYSIYWVRQAPGQRLEIIGRIDPKNGRTYYVDKFKNRATLTRDTSASTAYMELSSLRSEDTAVYFCTRIYGFYFDFWGQGTLVTVSS VL: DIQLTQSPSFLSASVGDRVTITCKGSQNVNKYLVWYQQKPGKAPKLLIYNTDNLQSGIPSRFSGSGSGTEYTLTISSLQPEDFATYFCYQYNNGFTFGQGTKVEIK , readout=kon) returns 1.85e+06

Entry h7E7.L3H1 (antibody, V domains shown, VL: Y71F against h7E7.L1H1; FR/HVR pieces) VH: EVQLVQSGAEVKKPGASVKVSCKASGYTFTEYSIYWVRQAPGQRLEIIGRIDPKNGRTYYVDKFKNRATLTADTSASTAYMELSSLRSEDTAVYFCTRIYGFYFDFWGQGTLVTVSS VL: DIQLTQSPSFLSASVGDRVTITCKGSQNVNKYLVWYQQKPGKAPKLLIYNTDNLQSGIPSRFSGSGSGTEFTLTISSLQPEDFATYFCYQYNNGFTFGQGTKVEIK — recorded kon = 920000

Just so you know, measured kon for h7E7.L1H5 (antibody, V domains shown, VH: L69I (printed L691) against h7E7.L1H1; FR/HVR pieces) VH: EVQLVQSGAEVKKPGASVKVSCKASGYTFTEYSIYWVRQAPGQRLEIIGRIDPKNGRTYYVDKFKNRATITADTSASTAYMELSSLRSEDTAVYFCTRIYGFYFDFWGQGTLVTVSS VL: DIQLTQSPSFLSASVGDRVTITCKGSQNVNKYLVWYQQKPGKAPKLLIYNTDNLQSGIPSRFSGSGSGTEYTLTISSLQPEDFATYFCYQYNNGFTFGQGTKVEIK came out at 3.24e+06

Recorded values, source patent US20220064286A1.
